Where these numbers come from: patent EP1420018A1

System: metrazol-induced convulsions
assay-remarks: Suppression of Metrazol-Induced Convulsions in Adult Male Mice
Assay type: in vivo
measurement-context: Mus musculus, ip, block of clonic convulsions, male CD1 mice, >30 = active dose not determined
Procedure: Assay to Determine the Suppression of Metrazol-Induced Convulsions in Adult Male Mice Male CD1 mice, were fasted at least 16 hours, were divided into equal groups and test compounds or vehicle were administered parenterally. Water was not withheld except during the period of observations. […] The biological assay was considered to be valid if the effects of a known anticonvulsant (positive control) were detected, within the same experiment. […]
readout-type: ED50

compound	readout-type	measured-value
CN(C)C=NCCN1C2=C(C(=O)Nc3ccccc3F)C(=O)CCN2c2ccc(F)cc21	ED50	< 1 mg/kg
O=C1CCN2C(=C1C(=O)Nc1ccccc1F)N(CCNS(=O)(=O)c1ccccc1)c1cc(F)ccc12	ED50	≤ 1 mg/kg
C[S+]([O-])CCN1C2=C(C(=O)Nc3ccccc3F)C(=O)CCN2c2ccc(F)cc21 (stereo not shown)	ED50	> 1 mg/kg

Let us move to another entry and its ED50.
Report ED50 for CN(C)CCN1C2=C(C(=O)Nc3ccccc3F)C(=O)CCN2c2ccc(Cl)cc21 please.
1 to 10 mg/kg

---

assay-system: benzodiazepine site of the GABA-A receptor
assay-remarks: Benzodiazepine Receptor Binding Assay (inhibition of 3H-flunitrazepam binding)
measurement-context: read-out: GABAA Receptor Binding IC50
pIC50: −log10 of the molar value.
Mark yes (1) for reported pIC50 of 9 or greater; mark no (0) for anything smaller.

smiles-notation	discrete-label
CCOCN1C2=C(C(=O)Nc3ccccc3F)C(=O)CCN2c2ccc(F)cc21	yes (1)
CN(C)CCN1C2=C(C(=O)Nc3c(F)cc(F)cc3F)C(=O)CCN2c2ccc(F)cc21	no (0)
O=C1CCN2C(=C1C(=O)Nc1ccccc1F)N(CCN(Cc1ccccc1)Cc1ccccc1)c1cc(F)ccc12	no (0)
O=C1CCN2C(=C1C(=O)Nc1ccccc1F)N(CCO)c1c(O)cccc12	no (0)
O=C1CCN2C(=C1C(=O)Nc1ccccc1F)N(CCNC(=O)c1ccccc1C(F)(F)F)c1cc(F)ccc12	no (0)

Lab note: next compound to report on.
Determine whether measured pIC50 meets or exceeds 9 for CCOCCN1C2=C(C(=O)Nc3ccc(S(C)(=O)=O)s3)C(=O)CCN2c2ccc(F)cc21
no (0)

---

Test system: Anxiety in the Adult Male Rat
assay-remarks: Suppression of Anxiety in the Adult Male Rat (rat conflict test)
Format: in vivo, rats
measurement-context: Rattus norvegicus, po, rat, po; read-out: Rat Conflict (MED, mg/kg) po
readout-type: minimal effective dose

Some molecules with known minimal effective dose results, for comparison:
molecule	minimal effective dose
CCOCN1C2=C(C(=O)Nc3ccc(C)s3)C(=O)CCN2c2ccc(F)cc21 [Compound 133]	> 3 mg/kg
COCCN1C2=C(C(=O)Nc3ccc(Cl)s3)C(=O)CCN2c2ccccc21 [Compound 146]	> 10 mg/kg
CCOCCN1C2=C(C(=O)Nc3ccc(S(C)(=O)=O)s3)C(=O)CCN2c2ccc(F)cc21 [Compound 121]	> 10 mg/kg

Kindly state the measured minimal effective dose obtained for CCOCN1C2=C(C(=O)NC3CC3)C(=O)CCN2c2ccc(F)cc21 [Compound 111] with Anxiety in the Adult Male Rat.
> 10 mg/kg
